Cond: siRNA; also: test system not given here
HELM strings list units from the 5' end as sugar, base in round brackets, then linkage (d deoxyribose, r ribose, m 2'-O-methyl, p phosphodiester). Strings are as the collection lists them, not checked against the first reports. ss, as = sense and antisense strand; [s4r] = 4'-thioribose; [fl2r] = 2'-fluoro
Readout Kind: target mRNA knockdown (%)
Respond numerically; units are % and should not be typed.

Guide cases for target mRNA knockdown, answers given:
# Substance, target mRNA knockdown / %
rows = [
    ("RNA1{r(C)p.r(G)p.r(U)p.r(A)p.r(C)p.r(G)p.r(C)p.r(G)p.r(G)p.r(A)p.r(A)p.r(U)p.r(A)p.r(C)p.r(U)p.r(U)p.r(C)p.r(G)p.r(A)p.r(T)p.r(T)}|RNA2{r(U)p.r(C)p.r(G)p.r(A)p.r(A)p.r(G)p.r(U)p.r(A)p.r(U)p.r(U)p.r(C)p.r(C)p.r(G)p.r(C)p.r(G)p.r(U)p.r(A)p.[s4r](C)p.[s4r](G)p.r(T)p.r(T)}$$$RNA1{StrandType:ss}|RNA2{StrandType:as}$", 90.2),
    ("RNA1{[s4r](A)p.[s4r](A)p.[s4r](A)p.[s4r](C)p.[s4r](A)p.[s4r](U)p.r(G)p.r(C)p.r(A)p.r(G)p.r(A)p.r(A)p.r(A)p.[s4r](A)p.[s4r](U)p.[s4r](G)p.[s4r](C)p.[s4r](U)p.[s4r](G)p.r(T)p.r(T)}|RNA2{r(C)p.r(A)p.r(G)p.r(C)p.r(A)p.r(U)p.r(U)p.r(U)p.r(U)p.r(C)p.r(U)p.r(G)p.r(C)p.r(A)p.r(U)p.[s4r](G)p.[s4r](U)p.[s4r](U)p.[s4r](U)p.r(T)p.r(T)}$$$RNA1{StrandType:ss}|RNA2{StrandType:as}$", 84.4),
]

Exercise: # lookup: target mRNA knockdown of RNA1{r(G)p.r(C)p.r(C)p.r(U)p.r(C)p.r(U)p.r(C)p.r(U)p.r(A)p.r(U)p.r(C)p.r(C)p.r(U)p.r(U)p.r(A)p.r(G)p.r(C)p.r(U)p.r(U)p.r(T)p.r(T)}|RNA2{r(A)p.r(A)p.r(G)p.r(C)p.[fl2r](U)p.r(A)p.r(A)p.r(G)p.r(G)p.r(A)p.[fl2r](U)p.r(A)p.r(G)p.r(A)p.r(G)p.r(A)p.r(G)p.r(G)p.r(C)p.r(T)p.r(T)}$$$RNA1{StrandType:ss}|RNA2{StrandType:as}$
Solution: 48

Exercise: Likewise for RNA1{r(G)p.m(U)p.r(A)p.r(C)p.r(U)p.r(C)p.m(U)p.r(G)p.r(A)p.m(U)p.r(G)p.r(A)p.r(G)p.r(G)p.r(A)p.r(A)p.r(G)p.r(A)p.r(G)p.r(T)p.r(T)}|RNA2{r(C)p.r(U)p.r(C)p.r(U)p.r(U)p.r(C)p.r(C)p.r(U)p.m(C)p.r(A)p.r(U)p.m(C)p.r(A)p.r(G)p.r(A)p.r(G)p.r(U)p.m(A)p.r(C)p.r(T)p.r(T)}$$$RNA1{StrandType:ss}|RNA2{StrandType:as}$ ?
Solution: 68

Exercise: Likewise for RNA1{r(G)p.r(A)p.r(A)p.r(A)p.r(A)p.r(C)p.r(G)p.r(C)p.r(U)p.m(U)p.r(G)p.m(U)p.r(A)p.r(A)p.r(A)p.r(G)p.r(C)p.r(C)p.r(G)p.r(T)p.r(T)}|RNA2{r(C)p.r(G)p.r(G)p.r(C)p.r(U)p.r(U)p.m(U)p.r(A)p.m(C)p.r(A)p.r(A)p.r(G)p.r(C)p.r(G)p.r(U)p.r(U)p.r(U)p.r(U)p.r(C)p.r(T)p.r(T)}$$$RNA1{StrandType:ss}|RNA2{StrandType:as}$ ?
Solution: 54
